Collected Ki values appear next to each entry.
Target or test system: UniProt P18841
Sequence (P18841 1-515): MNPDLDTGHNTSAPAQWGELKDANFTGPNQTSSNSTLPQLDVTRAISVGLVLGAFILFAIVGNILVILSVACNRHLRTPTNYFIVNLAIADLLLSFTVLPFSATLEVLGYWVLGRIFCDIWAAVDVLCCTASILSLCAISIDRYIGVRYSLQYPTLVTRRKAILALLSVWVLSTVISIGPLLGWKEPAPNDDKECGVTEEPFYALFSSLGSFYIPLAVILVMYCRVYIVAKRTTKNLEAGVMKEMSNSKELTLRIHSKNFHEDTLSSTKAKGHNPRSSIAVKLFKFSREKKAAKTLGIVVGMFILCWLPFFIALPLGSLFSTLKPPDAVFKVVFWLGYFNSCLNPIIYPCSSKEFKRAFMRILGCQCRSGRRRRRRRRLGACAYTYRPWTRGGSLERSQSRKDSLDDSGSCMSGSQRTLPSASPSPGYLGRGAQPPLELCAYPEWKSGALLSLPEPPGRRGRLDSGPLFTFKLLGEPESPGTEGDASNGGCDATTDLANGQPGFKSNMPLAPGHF
Assay protocol: [3H]-prazosin radioligand binding, cloned α1b (hamster) adrenoreceptor in LTK cells
Conditions: cloned receptor in LTK cell membranes, [3H]prazosin 0.2 nM
Structures can show the parent of a compound that is named as a salt.

[[record]]
compound = "Cl.Cl.O=c1[nH]c2c(sc3ncccc32)c(=O)n1CCCCN1CCN2c3ccccc3OCC2C1 (single isomer, unassigned; (+)) [Example 5, dihydrochloride]"
target_or_test_system = "UniProt P18841"
value_kind = "Ki"
measured_result = "40.6 nM"

[[record]]
compound = "COc1cccc2c1N1CCN(CCn3c(=O)[nH]c4c(sc5cccnc54)c3=O)CC1CO2.Cl.Cl.Cl (single isomer, unassigned; (+)) [Example 16, trihydrochloride]"
target_or_test_system = "UniProt P18841"
value_kind = "Ki"
measured_result = "11.8 nM"

[[record]]
compound = "Cl.Cl.O=c1[nH]c2c(sc3ncccc32)c(=O)n1CCCCN1CCN2c3ccccc3OCC2C1 (single isomer, unassigned; (-)) [Example 6, dihydrochloride]"
target_or_test_system = "UniProt P18841"
value_kind = "Ki"
measured_result = "27.3 nM"

[[record]]
compound = "O=c1[nH]c2c(sc3cccnc32)c(=O)n1CCCN1CCN2c3ccccc3OCC2C1 (single isomer, unassigned; (-)) [Example 2, dihydrochloride]"
target_or_test_system = "UniProt P18841"
value_kind = "Ki"
measured_result = "24.6 nM"

[[record]]
compound = "COc1cccc2c1N1CCN(CCCCn3c(=O)[nH]c4c(sc5ncccc54)c3=O)CC1CO2.Cl.Cl.Cl (single isomer, unassigned; (+)) [Example 15, trihydrochloride]"
target_or_test_system = "UniProt P18841"
value_kind = "Ki"
measured_result = "13.8 nM"


According to the records, this compound COc1cccc2c1N1CCN(CCn3c(=O)[nH]c4c(sc5cccnc54)c3=O)CC1CO2.Cl.Cl (single isomer, unassigned; (-)) [Example 7, dihydrochloride] displays Ki of 6.89 nM

Given item COc1cccc2c1N1CCN(CCCn3c(=O)[nH]c4c(sc5cccnc54)c3=O)CC1CO2.Cl.Cl.Cl (single isomer, unassigned; (+)) [Example 17, trihydrochloride] , the value recorded as its Ki is 40.4 nM
